- System: COLO 205 colon
- PROTOCOL_NOTES: NCI tumour cell line growth inhibition, 48 h
# reported TGI; entries follow

| COMPOUND | RESULT |
| --- | --- |
| Clc1ccc2c(NCCCCN3OC3c3ccccc3)ccnc2c1 (centres undefined) | 7.12 µM |
| CN(C)CCCOc1cccc(NC2=C(Cl)C(=O)C(Nc3cccc(OCCCN(C)C)c3)=C(Cl)C2=O)c1 | 3.34 µM |
| c1ccc2c(c1)NCc1cc3ccccc3nc1O2 | > 100 µM |
| COc1ccccc1-c1cc(=O)c2cc(C)c(C)c(C(=O)O)c2o1 | > 100 µM |
| Nc1nccc(NCC2(CO)CC(OCc3ccccc3)C2)n1 (centres undefined) | > 100 µM |

[in] For the compound CCCCCCCCCc1ccc(OCCOCCOCCOCCOCCOCCOCCOCCOCCO)cc1 , give its measured TGI value.
[out] 0.829 µM

[in] For the compound COc1ccc(-c2c(-c3ccc(OC)cc3)n3c(=O)n(C)c(=O)n23)cc1 , give its measured TGI value.
[out] > 100 µM

[in] For the compound CC(=O)c1ccc(NC(=O)C(=O)C(C(=O)/C=C/c2ccccc2)C2OC(=O)c3ccccc32)cc1 (centres undefined) , give its measured TGI value.
[out] > 100 µM

[in] For the compound CCOC(=O)c1cn2c(n1)sc1cc(OC)ccc12 , give its measured TGI value.
[out] > 27.5 µM

Numbers sourced from PubChem BioAssay (NCI).
